biological target: UniProt Q9XUB2; assay: MEX-5/TCR-2 RNA interaction inhibitors, dose response, biochemical, C. elegans, fluorescence polarization (AID 1960)
Sequence (Q9XUB2 whole entry): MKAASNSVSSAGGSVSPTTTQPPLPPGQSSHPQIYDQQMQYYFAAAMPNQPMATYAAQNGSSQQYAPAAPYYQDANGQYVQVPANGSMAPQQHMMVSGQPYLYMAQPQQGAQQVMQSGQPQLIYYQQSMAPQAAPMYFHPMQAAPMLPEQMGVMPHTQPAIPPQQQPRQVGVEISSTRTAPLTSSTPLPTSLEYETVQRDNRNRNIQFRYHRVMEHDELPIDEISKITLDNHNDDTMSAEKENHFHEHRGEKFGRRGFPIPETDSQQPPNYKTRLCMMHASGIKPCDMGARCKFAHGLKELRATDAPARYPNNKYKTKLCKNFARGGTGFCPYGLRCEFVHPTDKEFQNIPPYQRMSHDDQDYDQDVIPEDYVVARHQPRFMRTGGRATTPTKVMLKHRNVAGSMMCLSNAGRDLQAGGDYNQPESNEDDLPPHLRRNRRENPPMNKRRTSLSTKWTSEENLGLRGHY
Activity calls are given as the source filed them. Rule as the data show it: actives have a measured EC50 and inactives only a lower limit.
This section presents compounds with their documented EC50 values.
test-readout: EC50

# compound, test-readout, result
records = [
    ("C(=N\\Nc1nc2ccccc2[nH]1)/c1ccccn1", "EC50", "41.7 µM (active)"),
    ("Nc1cc(S(=O)(=O)O)cc([N+](=O)[O-])c1O", "EC50", "> 300 µM (not active)"),
    ("CCN(CC)CCN(Cc1cc2ccc(C)c(C)c2nc1O)C(S)=NCc1ccco1", "EC50", "> 300 µM (not active)"),
    ("O=C(O)CCc1ccc(-c2ccccc2)n1-c1ccc(C(=O)O)cc1", "EC50", "> 300 µM (not active)"),
    ("Cc1ccc(C(=O)N/C(=C\\c2ccc(-c3ccccc3[N+](=O)[O-])o2)C(=O)NCCCN(C)C)cc1", "EC50", "18.6 µM (active)"),
    ("CN1C(=O)C(=Cc2cn(CC(=O)N3CCCC3)c3ccccc23)C(=O)N(C)C1=O", "EC50", "> 300 µM (not active)"),
    ("COC(=O)C1CSc2[nH]c(=O)sc2C1c1ccc(OC)c(OC)c1 (stereo not given)", "EC50", "> 300 µM (not active)"),
    ("CCN(CC)C(=O)Cn1cc(C(=O)C(=O)N2CCc3ccccc32)c2ccccc21", "EC50", "> 300 µM (not active)"),
    ("CCCOc1ccc(/C=c2\\sc3nc(-c4ccco4)nn3c2=O)cc1OCC", "EC50", "> 300 µM (not active)"),
    ("COc1c(/C=C2/C(=O)NC(=O)N(C)C2=O)c(CCN(C)C(=O)c2ccccc2)cc2c1OCO2", "EC50", "> 300 µM (not active)"),
]
